Molecular target: Mycobacterium thermoresistible (Mtr) LpqY (Mycolicibacterium thermoresistibile, UniProt G7CES0)
Sequence (G7CES0 29-471): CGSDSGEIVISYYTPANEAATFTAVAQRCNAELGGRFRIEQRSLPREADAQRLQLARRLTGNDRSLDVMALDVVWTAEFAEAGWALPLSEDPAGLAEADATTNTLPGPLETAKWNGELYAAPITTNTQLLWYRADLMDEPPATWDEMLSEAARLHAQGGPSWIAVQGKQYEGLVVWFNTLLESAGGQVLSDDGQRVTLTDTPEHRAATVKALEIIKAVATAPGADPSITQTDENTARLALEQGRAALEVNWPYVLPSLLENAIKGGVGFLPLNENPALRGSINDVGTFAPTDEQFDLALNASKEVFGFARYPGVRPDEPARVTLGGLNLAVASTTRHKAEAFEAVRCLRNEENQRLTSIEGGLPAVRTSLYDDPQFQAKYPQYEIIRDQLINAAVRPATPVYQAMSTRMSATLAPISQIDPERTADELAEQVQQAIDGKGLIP
Format: binding
Conditions: single dose MST screen against LpqY

# compound, Pathogen Box screen signal/noise ratio
rows = [
    ("CCCCCCCCCCCCCCCCOP(=O)([O-])OCC[N+](C)(C)C", 0.7),
    ("CC1(COc2ccc(N3CCC(Oc4ccc(OC(F)(F)F)cc4)CC3)cc2)Cn2cc([N+](=O)[O-])nc2O1 (centres unmarked)", 0.232),
    ("c1ccc(-c2[nH]c3ccccc3c2C(c2ccccn2)N2CCCC2)cc1 (centres unmarked)", 0.9),
    ("Clc1cccc(CO[C@H]2CCc3ccccc3[C@@H]2n2ccnn2)c1", 1.0),
    ("CC(C)n1ncc2c(C(=O)NCC(c3cccs3)N3CCOCC3)cc(-c3ccccc3)nc21 (centres unmarked)", 2.6),
    ("O=C(Nc1cccnc1)c1c(O)c2cccc3c2n(c1=O)CC3", 2.1),
    ("N=C(N)c1ccc(-c2cc(-c3ccccc3)on2)cc1", 1.1),
    ("CCC(NC(=O)c1ccccc1NC(=O)c1ccc(C)cc1)C(=O)OC (centres unmarked)", 0.267),
    ("CC(=O)Nc1ccc(NC(=O)c2cc(-c3cc(Cl)ccc3O)[nH]n2)cc1", 1.2),
    ("Cc1nc2ccccn2c1C(=O)NCc1ccc(Cl)cc1", 1.0),
    ("Cc1[nH]c2ccccc2c1C(c1cccs1)N1CCN(C)CC1 (centres unmarked)", 2.1),
    ("Clc1ccc(-n2cc(COc3ccnc4ccccc34)nn2)cc1", 3.3),
    ("CC(C)NCC(=O)Nc1cccc(C(=O)Nc2cccc(C(F)(F)F)c2)c1", 4.3),
    ("COc1cccc(NC(=O)c2c(NC(=O)c3cccnc3)sc3c2CCC3)c1", 2.2),
]
